Assay: Liver microsome metabolic stability
Assay type: in vitro ADME
Details: SD rat liver microsomes
Reported endpoint: microsomal CLint (µL/min/mg)
Write the answer as a number in µL/min/mg, unit excluded.

# input Using the record for CN(C)Cc1cccc(Nc2ncc(Cl)c(-c3csc(C(=O)NN4CCOCC4)c3)n2)c1 , report its microsomal CLint.
# output 42.6

----------
Biological target: ERK1 (Homo sapiens)
Test: Isothermal titration calorimetry (ITC) assay
Type: binding
Settings: 25 °C
Reported endpoint: Kd (nM)
Write the answer as a number in nM, unit excluded.

# input Param readout = Kd; param system = ERK1 (Homo sapiens); param query = CN(C)Cc1cccc(Nc2ncc(Cl)c(-c3csc(C(=O)NN4CCOCC4)c3)n2)c1 ; response: value
# output 127

----------
Test system: MDA-MB-231 cells
Experiment: MTT cell viability assay
Assay type: cell-based
Settings: 10 μM
Reported endpoint: Anti-proliferative activity (10 μM, %) MDA-MB-231
# output: numeric value plus its unit

Consider the worked cases shown below.
Cc1cccc(NC(=O)c2cc(-c3nc(Nc4ccnn4C)ncc3Cl)cs2)c1 [6q]	29.43 ± 3.25%
Cn1nccc1Nc1ncc(Cl)c(-c2csc(C(=O)Nc3cccc(OC(F)(F)F)c3)c2)n1 [6n]	43.93 ± 0.21%
COc1ccc(NC(=O)c2cc(-c3nc(Nc4c(C)nn(C)c4C)ncc3Cl)cs2)cc1 [9d]	7.54 ± 1.23%
CN1CCN(C(=O)c2cc(-c3nc(Nc4ccnn4C)ncc3Cl)cs2)CC1 [6b]	3.15 ± 1.22%
COc1ccc(NC(=O)c2cc(-c3nc(Nc4cccc(N(C)C)c4)ncc3Cl)cs2)cc1 [9h]	11.21 ± 0.47%
CC(C)N1CCN(C(=O)c2cc(-c3nc(Nc4ccnn4C)ncc3Cl)cs2)CC1 [6c]	5.71 ± 1.21%
Cn1nccc1Nc1ncc(Cl)c(-c2csc(C(=O)Nc3cccc(C(F)(F)F)c3)c2)n1 [6m]	34.62 ± 1.24%
CSc1ccc(NC(=O)c2cc(-c3nc(Nc4ccnn4C)ncc3Cl)cs2)cc1 [6ac]	22.57 ± 1.11%

Next molecule, Anti-proliferative activity (10 μM, %) MDA-MB-231 to be filled in.
# input Using the record for Cc1cc(NC(=O)c2cc(-c3nc(Nc4cccc(CN(C)C)c4)ncc3Cl)cs2)ccn1 [18j] , report its Anti-proliferative activity (10 μM, %) MDA-MB-231.
# output 39.25 ± 0.21%

----------
Molecular target: ERK1 (Homo sapiens, UniProt P27361)
Sequence (P27361 whole entry): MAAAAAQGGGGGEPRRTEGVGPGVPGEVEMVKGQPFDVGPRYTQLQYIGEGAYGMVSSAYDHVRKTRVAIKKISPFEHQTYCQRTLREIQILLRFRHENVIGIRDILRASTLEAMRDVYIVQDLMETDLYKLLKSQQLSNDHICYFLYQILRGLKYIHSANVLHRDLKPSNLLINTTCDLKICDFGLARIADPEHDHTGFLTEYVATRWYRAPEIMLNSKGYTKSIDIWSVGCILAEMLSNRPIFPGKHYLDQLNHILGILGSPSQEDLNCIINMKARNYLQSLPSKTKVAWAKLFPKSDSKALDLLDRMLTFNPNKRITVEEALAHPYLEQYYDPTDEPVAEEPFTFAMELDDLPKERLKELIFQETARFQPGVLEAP
Assay: ADP-Glo kinase assay
Assay type: biochemical
Conditions: 500 nM
Reported endpoint: Enzyme inhibitory activity (500 nM, %) ERK1
Write the answer as a number in %, unit excluded.

Consider the worked cases shown below.
Cn1nccc1Nc1ncc(Cl)c(-c2csc(C(=O)Nc3cccc(C(F)(F)F)c3)c2)n1	50.98
Cn1nccc1Nc1ncc(Cl)c(-c2csc(C(=O)Nc3ccc(C(F)(F)F)cc3)c2)n1	50.78
Cc1cccc(NC(=O)c2cc(-c3nc(Nc4ccnn4C)ncc3Cl)cs2)c1	80.23
Cn1nccc1Nc1ncc(Cl)c(-c2csc(C(=O)Nc3cccc(OC(F)(F)F)c3)c2)n1	67.08
CC(C)Oc1ccc(NC(=O)c2cc(-c3nc(Nc4ccnn4C)ncc3Cl)cs2)cc1	93.45
CC(C)N1CCN(C(=O)c2cc(-c3nc(Nc4ccnn4C)ncc3Cl)cs2)CC1	21.57

# input Using the record for Cc1cc(NC(=O)c2cc(-c3nc(Nc4ccnn4C)ncc3Cl)cs2)ccn1 , report its Enzyme inhibitory activity (500 nM, %) ERK1.
# output 70.32

# input Using the record for COc1ccc(NC(=O)c2cc(-c3nc(Nc4c(C)nn(C)c4C)ncc3Cl)cs2)cc1 , report its Enzyme inhibitory activity (500 nM, %) ERK1.
# output 45.29

# input Using the record for CN(C)Cc1cccc(Nc2ncc(Cl)c(-c3csc(C(=O)Nc4ccncn4)c3)n2)c1 [18i] , report its Enzyme inhibitory activity (500 nM, %) ERK1.
# output 2.13
